Would you mind telling me the reported Percent Effect of each entry?
# Tested on: Trypanosoma brucei
# TEST NAME: Trypanosoma brucei 72 hour study
# Type: functional, organism-based
# Set-up: scale not given: in the data most compounds retested in dose-response had high values
# EXPERIMENTAL PARAMETERS: 30.3 µM; […]
The campaign covered roughly 66,000 compounds. About 960 (1.5%) showed an effect of 50% or more. The full list was thinned out, with strong results kept by preference.
Numbers only, in %.

A selection of reference data follows.
> print(dat)
                                   compound  measured.metric  meas.value
1  COCCN1CCC2(CC1)CC(NC(=O)C(C)C)c1ccccc1O2.O=C(O)C(F)(F)F (stereo unspecified)   Percent Effect       3.771
2  Cn1ccc2c(C(=O)N3CCN(C(=O)C4CCCC4)CC3)cccc21   Percent Effect     -0.9219
3  Cc1cc(C)c(-n2cccn2)c(CN2CCOCC(CN(C)C)C2)c1 (stereo unspecified)   Percent Effect      -14.72
4   CN1CCN(C(=O)c2cc3sccc3n2Cc2ccccc2Cl)CC1   Percent Effect       25.89
5  Cl.c1ccc(CCNc2cccc(C3CCCNC3)n2)cc1 (stereo unspecified)   Percent Effect       66.04

Your task in this section: give Percent Effect for each listed record.
1. CCn1ccnc1CN1CCCC1C(=O)Nc1nccs1 (stereo unspecified)
2. Cl.c1cc(NCc2ccncc2)nc(C2CCCNC2)c1 (stereo unspecified)

4.608
-1.5

Your task in this section: give Percent Effect for each listed record.
1. CCC(C)(C)n1nnnc1C(c1cccs1)N1CCCCC1 (stereo unspecified)
2. O=C(O)C(F)(F)F.c1coc(CN2CCO[C@H]3[C@H](OCC4CCCC4)CC[C@@H]32)c1
3. Cc1ccc(-n2cc(CN3CCOCC(CN(C)C)C3)cn2)cc1C (stereo unspecified)
4. CCC(C)(C)n1nnnc1C(c1cccs1)N1CCc2ccccc2C1 (stereo unspecified)

13.9
1.448
98.04
99.92
